Cited source: ChEMBL document CHEMBL1126031

Target Entity: Renin (Homo sapiens)
Test Details: In vitro inhibition of purified human renin at a pH of 6.0.
Please map values of IC50 to classes as shown: bottom bin = under 1 nM, middle bin = from 1 nM up to 20 nM, top bin = 20 nM and over

Please review the following examples before continuing.
CC(C)C[C@H](O)[C@H](O)[C@H](CC1CCCCC1)NC(=O)[C@H](Cc1cscn1)NC(=O)[C@H](CC(=O)N1CCOCC1)Cc1ccccc1	top bin
CC(C)C[C@H]1[C@@H](C(=O)N[C@@H](Cc2cscn2)C(=O)N[C@@H](CC2CCCCC2)[C@@H](O)[C@@H](O)CC(C)C)[C@@H]1C(=O)N1CCOCC1	middle bin
CC(C)C[C@H](O)[C@H](O)[C@H](CC1CCCCC1)NC(=O)[C@H](Cc1cscn1)NC(=O)[C@@H]1[C@@H](C(=O)N2CCOCC2)[C@H]1c1ccccc1	top bin
CC[C@H]1[C@@H](C(=O)N[C@@H](Cc2cscn2)C(=O)N[C@@H](CC2CCCCC2)[C@@H](O)[C@@H](O)CC(C)C)[C@@H]1C(=O)N1CCOCC1	middle bin

Sort CC(C)C[C@H](O)[C@H](O)[C@H](CC1CCCCC1)NC(=O)[C@H](Cc1cscn1)NC(=O)[C@@H](CC(=O)N1CCOCC1)Cc1ccccc1 into one of the categories. bottom bin

Sort CCOC(=O)N[C@@H](Cc1ccc(I)cc1)C(=O)N[C@@H](CC(C)C)C(=O)N[C@@H](CC1CCCCC1)[C@@H](O)[C@@H](O)CC(C)C into one of the categories. middle bin

Sort CC(C)C[C@@H]1[C@@H](C(=O)N[C@@H](Cc2cscn2)C(=O)N[C@@H](CC2CCCCC2)[C@@H](O)[C@@H](O)CC(C)C)[C@@H]1C(=O)N1CCOCC1 into one of the categories. middle bin

Sort CC(C)C[C@H](O)[C@H](O)[C@H](CC1CCCCC1)NC(=O)[C@H](Cc1cscn1)NC(=O)[C@H]1[C@H](C(=O)N2CCOCC2)[C@@H]1c1ccccc1 into one of the categories. bottom bin

Sort CC(C)C[C@H](O)[C@H](O)[C@H](CC1CCCCC1)NC(=O)[C@H](Cc1cscn1)NC(=O)C1[C@@H](c2ccccc2)[C@H]1c1ccccc1 (some centres undefined) into one of the categories. middle bin

* * *

Each entry below lists one item and its recorded IC50 value.
Target Entity: Renin (Homo sapiens, UniProt P00797)
Sequence (P00797 whole entry): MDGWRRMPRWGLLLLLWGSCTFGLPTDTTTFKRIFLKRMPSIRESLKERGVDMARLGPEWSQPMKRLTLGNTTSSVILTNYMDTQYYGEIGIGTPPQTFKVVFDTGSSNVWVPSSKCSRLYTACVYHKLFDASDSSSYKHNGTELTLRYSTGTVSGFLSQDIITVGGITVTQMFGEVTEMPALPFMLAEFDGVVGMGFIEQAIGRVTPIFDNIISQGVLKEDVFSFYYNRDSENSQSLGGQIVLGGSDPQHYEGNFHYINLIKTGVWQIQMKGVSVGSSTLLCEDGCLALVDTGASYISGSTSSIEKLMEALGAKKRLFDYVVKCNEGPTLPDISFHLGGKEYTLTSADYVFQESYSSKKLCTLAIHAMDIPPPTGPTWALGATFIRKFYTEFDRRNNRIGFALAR
Test Details: In vitro inhibition of purified human renin at a pH of 6.0.
Write the figure, then the unit, nothing else.

The following molecules have reported results that may help.
CC(C)C[C@H](O)[C@H](O)[C@H](CC1CCCCC1)NC(=O)[C@H](Cc1cscn1)NC(=O)C(Cc1ccccc1)Cc1ccccc1	0.00047 µM
CC[C@@H]1[C@@H](C(=O)N[C@@H](Cc2cscn2)C(=O)N[C@@H](CC2CCCCC2)[C@@H](O)[C@@H](O)CC(C)C)[C@@H]1C(=O)N1CCOCC1	0.01 µM

Please examine the following record next.
Which IC50 value belongs to CC(C)C[C@H](O)[C@H](O)[C@H](CC1CCCCC1)NC(=O)[C@H](Cc1cscn1)NC(=O)[C@H]1[C@H](C(=O)N2CCOCC2)[C@H]1c1ccccc1 ? 0.2 µM
